Every entry's value here was drawn from ChEMBL document CHEMBL3352193.

Experimental Protocol: Cytotoxicity against human HCT116 cells after 72 hrs by SRB assay
Type: functional, cell-based
Assay Setup: HCT-116, 72 h
Simple rule here: IC50 less than 10 µM is label 1, otherwise label 0.

Below are worked cases with known answers.
# Compound, Classification
rows = [
    ("Cc1ccc(S(=O)(=O)n2cnc3c(Cl)ncnc32)cc1", "label 0"),
    ("Cc1ccc(S(=O)(=O)n2cnc3c(N4CCN(c5ccc(C(F)(F)F)cc5)CC4)ncnc32)cc1", "label 1"),
    ("Nc1nc(F)nc2c1ncn2[C@@H]1O[C@H](CO)[C@@H](O)[C@@H]1O", "label 1"),
    ("Cc1ccc(S(=O)(=O)n2cnc3c(NCc4ccc(Cl)cc4Cl)ncnc32)cc1", "label 0"),
    ("C1=CC(CCNc2ncnc3[nH]cnc23)CCC1 (configuration not stated)", "label 0"),
    ("CC1CCN(c2ncnc3c2ncn3C2CCCC2)CC1", "label 0"),
    ("FC(F)(F)c1cccc(CNc2ncnc3[nH]cnc23)c1", "label 0"),
    ("O=c1[nH]cc(F)c(=O)[nH]1", "label 1"),
    ("FC(F)(F)c1ccc(N2CCN(c3ncnc4[nH]cnc34)CC2)cc1", "label 1"),
    ("Cc1ccc(S(=O)(=O)n2cnc3c(N4CCC(C)CC4)ncnc32)cc1", "label 0"),
]

INPUT: Report whether reported IC50 is lower than 10 µM (strictly) for COc1ccc(CNc2ncnc3[nH]cnc23)cc1
OUTPUT: label 0

INPUT: Regarding c1ccc(NCCNc2ncnc3[nH]cnc23)cc1 , kindly confirm whether its IC50 is beneath 10 µM.
OUTPUT: label 0
